Here, each record is paired with measured IC50 data.
Target: Substance-P receptor (Cavia porcellus, UniProt P30547)
Sequence (P30547 whole entry): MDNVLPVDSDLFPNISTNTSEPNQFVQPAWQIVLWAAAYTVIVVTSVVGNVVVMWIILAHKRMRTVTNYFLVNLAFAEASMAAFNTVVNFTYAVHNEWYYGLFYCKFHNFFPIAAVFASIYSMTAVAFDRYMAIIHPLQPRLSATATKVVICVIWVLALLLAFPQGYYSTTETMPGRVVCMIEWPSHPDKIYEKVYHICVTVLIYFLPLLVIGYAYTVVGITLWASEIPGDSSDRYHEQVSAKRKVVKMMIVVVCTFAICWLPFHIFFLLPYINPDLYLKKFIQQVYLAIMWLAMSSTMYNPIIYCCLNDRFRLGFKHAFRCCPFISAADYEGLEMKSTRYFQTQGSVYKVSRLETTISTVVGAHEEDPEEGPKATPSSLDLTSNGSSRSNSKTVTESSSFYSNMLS
Experiment: In vitro binding affinity against substance P receptor using [3H]SP as radioligand in guinea pig lung membrane
Assay type: cell membranes
Conditions: read-out: IC50
parameter.measured: IC50 (nM)

{"compound": "CN(Cc1ccccc1)C(=O)C(Cc1ccccc1)NC(=O)C1C[C@@H](O)CN1C(=O)c1c[nH]c2ccccc12 (single isomer, unassigned)", "parameter.measured": "IC50", "unit.annotation": "nM", "readout.value": 7.4}
{"compound": "CN(Cc1ccccc1)C(=O)[C@@H](Cc1ccccc1F)NC(=O)C1C[C@@H](O)CN1C(=O)c1cn(C)c2ccccc12 (some centres not stated)", "parameter.measured": "IC50", "unit.annotation": "nM", "readout.value": 14}
{"compound": "CN(Cc1ccccc1)C(=O)[C@@H](Cc1ccccc1)NC(=O)C(CO)NC(=O)c1c[nH]c2ccccc12 (some centres not stated)", "parameter.measured": "IC50", "unit.annotation": "nM", "readout.value": 11}
{"compound": "CN(Cc1ccccc1)C(=O)[C@@H](Cc1ccccc1)NC(=O)C1CCN1C(=O)c1c[nH]c2ccccc12 (some centres not stated)", "parameter.measured": "IC50", "unit.annotation": "nM", "readout.value": 8}
{"compound": "CC(C)n1cc(C(=O)N2C[C@H](O)CC2C(=O)N[C@H](Cc2ccccc2)C(=O)N(C)Cc2ccccc2)c2ccccc21 (some centres not stated)", "parameter.measured": "IC50", "unit.annotation": "nM", "readout.value": 15.9}
{"compound": "CN(Cc1ccccc1)C(=O)[C@@H](Cc1ccc2c(c1)CCCC2)NC(=O)C1C[C@@H](O)CN1C(=O)c1cn(C)c2ccccc12 (some centres not stated)", "parameter.measured": "IC50", "unit.annotation": "nM", "readout.value": 11.6}
{"compound": "CN(Cc1ccccc1)C(=O)[C@@H](Cc1ccccc1)NC(=O)C1C[C@@H](O)CN1C(=O)/C=C/c1ccccc1 (some centres not stated)", "parameter.measured": "IC50", "unit.annotation": "nM", "readout.value": 9}

====

Target: Substance-P receptor (Cavia porcellus)
Experiment: In vitro binding affinity against substance P receptor using [3H]SP as radioligand in guinea pig lung membrane
Format: cell membranes
Details: read-out: IC50

{"compound": "CN(Cc1ccccc1)C(=O)C(Cc1ccccc1)NC(=O)C1C[C@H](O)CN1C(=O)c1c[nH]c2ccccc12 (single isomer, unassigned)", "system.under.test": "Substance-P receptor (Cavia porcellus)", "IC50 (nM)": 4.6}
{"compound": "CN(Cc1ccccc1)C(=O)[C@@H](Cc1ccccc1)NC(=O)C(CC(N)=O)NC(=O)c1c[nH]c2ccccc12 (some centres undefined)", "system.under.test": "Substance-P receptor (Cavia porcellus)", "IC50 (nM)": 9}
{"compound": "CN(Cc1ccccc1)C(=O)[C@@H](Cc1ccc2ccccc2c1)NC(=O)C1C[C@@H](O)CN1C(=O)c1cn(C)c2ccccc12 (some centres undefined)", "system.under.test": "Substance-P receptor (Cavia porcellus)", "IC50 (nM)": 1.7}
{"compound": "CN(C)CCn1cc(C(=O)N2C[C@H](O)CC2C(=O)N[C@H](Cc2ccccc2)C(=O)N(C)Cc2ccccc2)c2ccccc21 (some centres undefined)", "system.under.test": "Substance-P receptor (Cavia porcellus)", "IC50 (nM)": 3.5}
